Assign solubility to each entry below.
experiment_notes: Aqueous solubility of compound in PBS buffer at pH 7.4 incubated for 24 hrs by UV-HPLC analysis
Assay type: physicochemical
protocol_conditions: pH 7.4, 24 h
Supply the numeric figure in µM, leaving out any unit text.

Q) Find the measured solubility of "[2H]C([2H])([2H])C([2H])([2H])Oc1ccc2nc(S(N)(=O)=O)sc2c1" and report it.
A) 147

Q) Find the measured solubility of "NS(=O)(=O)c1nc2cc(F)ccc2s1" and report it.
A) 196

Q) Find the measured solubility of CCOc1ccc2nc(S(N)(=O)=O)sc2c1 [ETHOXZOLAMIDE] and report it.
A) 107

Q) Find the measured solubility of "NS(=O)(=O)c1nc2ccc(O)cc2s1" and report it.
A) 186

Q) Find the measured solubility of "NS(=O)(=O)c1nc2ccc(OC(F)(F)F)cc2s1" and report it.
A) 182

Q) Find the measured solubility of "NS(=O)(=O)c1nc2ccc(F)cc2s1" and report it.
A) 192

Q) Find the measured solubility of "NS(=O)(=O)c1nc2cc(F)c(F)cc2s1" and report it.
A) 195
